Cited source for all entries: the supplement of paper PMC10307832

tested on: NCI-H1437; assay: relative viability (nuclei count vs DMSO), 5 days (fraction); higher = more cells survive; conditions: first compound 1.265 µM

compound	test.target	relative viability
COc1cc(N2CCC(C(N)=O)CC2)ccc1Nc1nc(N)c(Cl)c(Nc2ccccc2S(=O)(=O)C(C)C)n1 [HG-5-88-01] + Cc1nc(Nc2ncc(C(=O)Nc3c(C)cccc3Cl)s2)cc(N2CCN(CCO)CC2)n1 [Dasatinib] (partner 0.075 µM)	NCI-H1437	0.234
COc1cc(N2CCC(C(N)=O)CC2)ccc1Nc1nc(N)c(Cl)c(Nc2ccccc2S(=O)(=O)C(C)C)n1 [HG-5-88-01] + CC(=O)Nc1cccc(-n2c(=O)n(C3CC3)c(=O)c3c(Nc4ccc(I)cc4F)n(C)c(=O)c(C)c32)c1 [Trametinib] (partner 0.02 µM)	NCI-H1437	0.475
